- MEASUREMENT TARGET: Sentrin-specific protease 8 (Homo sapiens, UniProt Q96LD8);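 further: luminescence read-out of SENP8 inhibition, dose-response confirmation following an ultra-high-throughput screen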
- Sequence (Q96LD8 whole entry): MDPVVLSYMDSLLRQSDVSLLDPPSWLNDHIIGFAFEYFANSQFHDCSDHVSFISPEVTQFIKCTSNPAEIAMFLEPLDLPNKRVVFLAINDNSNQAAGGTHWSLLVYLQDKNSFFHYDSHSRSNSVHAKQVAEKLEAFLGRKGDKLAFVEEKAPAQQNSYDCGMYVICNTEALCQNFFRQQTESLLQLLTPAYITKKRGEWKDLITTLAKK
- Format: functional
Active and inactive are the calls of the source.
MEASURED PROPERTY: IC50

SMILES STRING	MEASUREMENT TARGET	MEASUREMENT
O=C(/C=C/c1ccc(Br)cc1)NC(=O)c1ccccc1O	Sentrin-specific protease 8 (Homo sapiens, UniProt Q96LD8)	26.9 µM (active)
CC(=O)c1sc(N/N=C\c2ccc(N(C)C)cc2)nc1C	Sentrin-specific protease 8 (Homo sapiens, UniProt Q96LD8)	4.08 µM (active)
CC(=O)N(C1=C(Cl)C(=O)c2ccccc2C1=O)c1ccc(C(=O)O)cc1	Sentrin-specific protease 8 (Homo sapiens, UniProt Q96LD8)	5.99 µM (active)
CC(C)OCCCNC1=C(Cl)C(=O)c2ccccc2C1=O	Sentrin-specific protease 8 (Homo sapiens, UniProt Q96LD8)	25.7 µM (active)
CCOC(=O)c1cc(-c2cc3ccccc3o2)[nH]n1	Sentrin-specific protease 8 (Homo sapiens, UniProt Q96LD8)	34.8 µM (active)

----------
- MEASUREMENT TARGET: Histone-lysine N-methyltransferase NSD2 (Homo sapiens, UniProt O96028)
- Sequence (O96028 whole entry): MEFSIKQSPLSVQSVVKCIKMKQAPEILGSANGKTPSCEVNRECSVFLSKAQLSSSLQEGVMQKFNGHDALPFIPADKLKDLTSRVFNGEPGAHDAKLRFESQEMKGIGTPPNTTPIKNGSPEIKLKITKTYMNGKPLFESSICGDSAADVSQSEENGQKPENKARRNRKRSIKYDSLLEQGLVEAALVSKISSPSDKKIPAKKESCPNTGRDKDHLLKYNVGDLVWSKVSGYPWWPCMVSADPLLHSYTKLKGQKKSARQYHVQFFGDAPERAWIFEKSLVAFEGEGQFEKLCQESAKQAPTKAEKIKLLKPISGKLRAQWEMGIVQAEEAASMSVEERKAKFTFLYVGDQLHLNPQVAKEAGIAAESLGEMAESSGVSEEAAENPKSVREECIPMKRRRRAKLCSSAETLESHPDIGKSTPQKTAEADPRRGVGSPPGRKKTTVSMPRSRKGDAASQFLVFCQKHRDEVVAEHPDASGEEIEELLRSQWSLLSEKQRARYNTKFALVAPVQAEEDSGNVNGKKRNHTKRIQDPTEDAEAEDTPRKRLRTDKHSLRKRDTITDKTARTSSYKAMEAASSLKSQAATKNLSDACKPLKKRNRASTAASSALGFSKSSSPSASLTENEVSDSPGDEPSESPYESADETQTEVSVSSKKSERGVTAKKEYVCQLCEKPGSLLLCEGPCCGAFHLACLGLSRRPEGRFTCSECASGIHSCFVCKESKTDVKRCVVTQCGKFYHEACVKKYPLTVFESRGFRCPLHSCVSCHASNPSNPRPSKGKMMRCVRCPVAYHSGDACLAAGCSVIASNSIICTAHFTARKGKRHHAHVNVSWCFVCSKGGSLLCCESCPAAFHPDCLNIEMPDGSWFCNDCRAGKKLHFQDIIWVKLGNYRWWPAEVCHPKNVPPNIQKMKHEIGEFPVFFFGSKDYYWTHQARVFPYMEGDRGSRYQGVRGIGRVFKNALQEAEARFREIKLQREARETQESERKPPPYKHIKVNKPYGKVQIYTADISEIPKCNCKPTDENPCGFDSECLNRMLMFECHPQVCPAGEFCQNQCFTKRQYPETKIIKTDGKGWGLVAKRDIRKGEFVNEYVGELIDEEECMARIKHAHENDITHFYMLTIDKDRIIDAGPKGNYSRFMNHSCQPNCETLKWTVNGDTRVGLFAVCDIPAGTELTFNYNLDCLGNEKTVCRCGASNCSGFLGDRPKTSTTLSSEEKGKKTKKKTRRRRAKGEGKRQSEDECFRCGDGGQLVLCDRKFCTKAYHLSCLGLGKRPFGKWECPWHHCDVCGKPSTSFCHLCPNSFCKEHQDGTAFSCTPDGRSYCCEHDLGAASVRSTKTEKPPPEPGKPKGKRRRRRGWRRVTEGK
- Type: biochemical
Active and inactive are the calls of the source.
# AC50 annotations

SMILES STRING	AC50
CC(=O)N(C1=C(Cl)C(=O)c2ccccc2C1=O)c1ccc(C(=O)O)cc1	3.29 µM (active)
NNC(=O)c1cc(O)c(O)c(O)c1	5.41 µM (active)
CCOC(=O)CCCCC(=O)c1[nH]c(O)nc1CSc1nc2ccccc2[nH]1	7.6 µM (active)
O=C(CSc1nc2ccccc2o1)N/N=C/c1ccc(O)c(O)c1	0.742 µM (active)
COC1=CC(=O)c2nc(Cl)ccc2C1=O	4.32 µM (active)
CC1(C)C=C2C(=NN(c3ccccc3)C(N)=C2C#N)CO1	5.67 µM (active)

----------
- MEASUREMENT TARGET: High affinity choline transporter 1 (Homo sapiens, UniProt Q9GZV3)
- Sequence (Q9GZV3 whole entry): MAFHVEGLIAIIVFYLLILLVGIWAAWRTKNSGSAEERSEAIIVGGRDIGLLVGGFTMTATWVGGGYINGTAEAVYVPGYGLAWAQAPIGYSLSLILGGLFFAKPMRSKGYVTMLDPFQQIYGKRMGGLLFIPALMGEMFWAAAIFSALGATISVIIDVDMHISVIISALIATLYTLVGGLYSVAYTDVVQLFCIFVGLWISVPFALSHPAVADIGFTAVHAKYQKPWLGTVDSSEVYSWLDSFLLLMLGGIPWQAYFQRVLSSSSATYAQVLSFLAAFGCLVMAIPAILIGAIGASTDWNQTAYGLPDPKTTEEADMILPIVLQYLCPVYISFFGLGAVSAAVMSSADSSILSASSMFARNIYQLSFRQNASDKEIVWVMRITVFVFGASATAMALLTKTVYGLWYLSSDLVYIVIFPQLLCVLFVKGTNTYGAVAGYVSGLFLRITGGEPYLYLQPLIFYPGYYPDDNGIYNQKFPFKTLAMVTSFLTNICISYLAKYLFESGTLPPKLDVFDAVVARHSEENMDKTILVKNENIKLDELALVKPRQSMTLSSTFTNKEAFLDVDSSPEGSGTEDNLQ
- ASSAY DETAILS: human choline transporter blockers, potency – cell-based, 5-point CRC, membrane potential dye, dose response (AID 504840)
- Assay type: functional
The source made the active and inactive calls.
# IC50 annotations

MOLECULE	MEASUREMENT TARGET	IC50
COc1ccccc1C(CNC(=O)c1cccc(NS(=O)(=O)c2ccc(C)c(F)c2)c1)N1CCCC1 (stereo unspecified)	High affinity choline transporter 1 (Homo sapiens, UniProt Q9GZV3)	12.5 µM (active)
O=C(Nc1ccn(Cc2ccccc2)n1)c1n[nH]c([N+](=O)[O-])c1Cl	High affinity choline transporter 1 (Homo sapiens, UniProt Q9GZV3)	4.37 µM (active)
COc1cccc(N2CCN(C(=O)C3CCCN(c4ncnc5c4nc4n5CCCCC4)C3)CC2)c1 (stereo unspecified)	High affinity choline transporter 1 (Homo sapiens, UniProt Q9GZV3)	16.6 µM (active)
CCCn1c2ccccc2c2cnn(CC(=O)NCCCN3CCCCC3CC)c(=O)c21 (stereo unspecified)	High affinity choline transporter 1 (Homo sapiens, UniProt Q9GZV3)	13.6 µM (active)
Cc1[nH]c2ccccc2c1C(=O)CN1CCCC(C)C1 (stereo unspecified)	High affinity choline transporter 1 (Homo sapiens, UniProt Q9GZV3)	15.8 µM (active)
O=C(O)CSc1cc(C(=O)c2cc(F)ccc2O)cn2c(=O)c3c(-c4ccccc4)csc3nc12	High affinity choline transporter 1 (Homo sapiens, UniProt Q9GZV3)	16.6 µM (active)
